- Measurement Target: T1, Purified recombinant human CD26 (rhDipeptidyl peptidase IV), R&D Systems CAT #1180-SE (human, UniProt P27487 29-766)
- T1 construct: Bought recombinant protein; also called hu-CD26; soluble human CD26
- T1 sequence (P27487 29-766 limits assumed): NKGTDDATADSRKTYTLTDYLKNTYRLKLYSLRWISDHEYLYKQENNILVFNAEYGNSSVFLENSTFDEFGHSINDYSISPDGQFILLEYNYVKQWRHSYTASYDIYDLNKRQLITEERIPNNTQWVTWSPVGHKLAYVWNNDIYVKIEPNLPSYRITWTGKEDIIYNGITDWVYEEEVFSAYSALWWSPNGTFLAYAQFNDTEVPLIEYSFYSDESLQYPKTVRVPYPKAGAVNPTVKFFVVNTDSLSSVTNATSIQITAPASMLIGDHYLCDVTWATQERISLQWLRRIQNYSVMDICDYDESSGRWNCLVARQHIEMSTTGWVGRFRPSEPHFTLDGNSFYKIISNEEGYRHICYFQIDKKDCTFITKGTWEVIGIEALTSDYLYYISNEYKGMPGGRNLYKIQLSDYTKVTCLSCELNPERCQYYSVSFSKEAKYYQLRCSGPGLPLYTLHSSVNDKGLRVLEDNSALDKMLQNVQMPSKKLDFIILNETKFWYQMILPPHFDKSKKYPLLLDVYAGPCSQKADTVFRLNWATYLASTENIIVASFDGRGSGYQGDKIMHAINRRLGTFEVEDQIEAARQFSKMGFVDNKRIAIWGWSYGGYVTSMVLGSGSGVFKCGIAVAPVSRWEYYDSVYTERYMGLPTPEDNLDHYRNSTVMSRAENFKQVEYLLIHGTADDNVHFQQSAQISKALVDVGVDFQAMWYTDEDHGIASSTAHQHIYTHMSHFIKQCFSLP
- Assay Protocol: SPR (Biacore), Fab
Please provide measured pKd for the entries that follow.
pKd here: minus log base 10 of the concentration, concentration in moles per litre.

I am curious: what pKd value has been reported for Fab comprising X388 VH and CM03 VL (Fab, V domains shown, Fab made in E. coli) VH: EVQLVQSGGGLKQPGETLRLSCTASGYSLTTYGVHWVRQAPGKGLEWMGVIWGDGRTDYDSSFMSRVTISKDTSKSTAYLQLNSLRAEDTAVYYCTRNRHDWFDYWGQGTTVTVSS VL: DIQMTQSPSSLSASLGDRVTITCSASQGIRNSLNWYQQKPDGAVKLLIYYSSNLHSGVPSRFSGSGSGTDFSLTISNLEPEDIATYYCQQSIKLPFTFGSGTKLEIK ? 8.53

I am curious: what pKd value has been reported for Fab comprising X385 VH and CM03 VL (Fab, V domains shown, Fab made in E. coli) VH: EVQLVQSGGGVKQPGETLRLTCTASGFSLTTYGVHWVRQAPGKGLEWVGVIWGDGRTDYDAAFMSRVTISKDTSKSTAYLQMNSLRAEDTAVYYCMRNRHDWFDYWGQGTTVTVSS VL: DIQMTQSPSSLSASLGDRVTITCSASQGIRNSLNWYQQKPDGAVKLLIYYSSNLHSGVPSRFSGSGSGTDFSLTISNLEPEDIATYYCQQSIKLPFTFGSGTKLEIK ? 8.83

I am curious: what pKd value has been reported for Fab comprising X386 VH and CM03 VL (Fab, V domains shown, Fab made in E. coli) VH: EVQLVESGAGVEQPGGTLRLTCTASGFSLTTYGVHWVRQAPGKGLEWMGVIWGDGRTDYDAAFMSRVTISRDTSKSTAYLQLNSLRAEDTAVYYCVRNRHDWFDYWGQGTTVTVSS VL: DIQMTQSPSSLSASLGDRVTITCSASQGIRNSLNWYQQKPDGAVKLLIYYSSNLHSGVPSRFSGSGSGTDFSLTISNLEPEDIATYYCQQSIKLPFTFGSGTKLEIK ? 8.57
